Catalogue of inhibition values
# study-system: N-formyl peptide receptor 2 (Homo sapiens)
# assay-name: FPRL1 fluorescent ligand binding inhibitors, cell-based, flow cytometry, single concentration (AID 765)
# test-parameters: FPRL1-expressing cells, stronger effect = higher value; at 5.1 µM unless noted
Active and inactive are the calls of the source. No stated cut-off is given here; in the data, active means inhibition above about 31%; inactive means the rest.

[
  {
    "record-smiles": "O=C(O)CC1(CC(=O)N2CCN(c3nc(-c4ccccc4Cl)c4cc(Br)ccc4n3)CC2)CCCC1",
    "inhibition": "-5.2% [at 3.9 µM] (inactive)"
  },
  {
    "record-smiles": "Cc1ccc(-c2cc(C(F)F)nc(N3CCN(c4cccc(Cl)c4)CC3)n2)cc1",
    "inhibition": "-3.5% [at 5.4 µM] (inactive)"
  },
  {
    "record-smiles": "O=C(O)/C=C/C(=O)N1CCN(c2nc(-c3ccccc3)c3ccccc3n2)CC1",
    "inhibition": "6.6% [at 5.7 µM] (inactive)"
  },
  {
    "record-smiles": "CCOC(=O)N1CCN(c2nc(-c3ccccc3)c3cc(C)ccc3n2)CC1",
    "inhibition": "3.4% [at 5.9 µM] (inactive)"
  },
  {
    "record-smiles": "COc1ccc(-c2cn3cccnc3n2)cc1NC(=O)c1cc(Br)ccc1Cl",
    "inhibition": "4.3% [at 4.9 µM] (inactive)"
  },
  {
    "record-smiles": "FC(F)(F)c1cc(-c2cccs2)nc(N2CCN(Cc3ccccc3)CC2)n1",
    "inhibition": "12.5% [at 5.5 µM] (inactive)"
  },
  {
    "record-smiles": "COc1ccc(-c2cc(C(F)(F)F)nc(N3CCN(C(c4ccccc4)c4ccccc4)CC3)n2)cc1OC",
    "inhibition": "25.4% [at 4.2 µM] (inactive)"
  },
  {
    "record-smiles": "CC(C)(C)OC(=O)N1CCN(c2nc(-c3ccccc3)c3cc([N+](=O)[O-])ccc3n2)CC1",
    "inhibition": "14.7% (inactive)"
  },
  {
    "record-smiles": "COc1ccc(-c2cn3cccnc3n2)cc1NC(=O)c1ccc(C(F)(F)F)cc1",
    "inhibition": "-3.6% [at 5.4 µM] (inactive)"
  }
]

---

# study-system: N-formyl peptide receptor 2 (Homo sapiens) (UniProt P25090)
# Sequence (P25090 whole entry, looked up): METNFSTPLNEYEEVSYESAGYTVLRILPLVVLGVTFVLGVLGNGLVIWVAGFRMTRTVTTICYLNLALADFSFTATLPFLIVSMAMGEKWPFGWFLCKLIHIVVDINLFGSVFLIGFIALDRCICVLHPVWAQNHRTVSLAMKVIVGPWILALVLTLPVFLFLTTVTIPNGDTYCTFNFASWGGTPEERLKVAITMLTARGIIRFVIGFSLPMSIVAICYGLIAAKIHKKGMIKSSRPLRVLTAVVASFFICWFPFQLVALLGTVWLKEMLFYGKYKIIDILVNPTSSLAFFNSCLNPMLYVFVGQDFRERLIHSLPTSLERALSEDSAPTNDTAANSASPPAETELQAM
# assay-name: FPRL1 fluorescent ligand binding inhibitors, cell-based, flow cytometry, single concentration (AID 765)
# test-parameters: FPRL1-expressing cells; at 5.1 µM unless noted
Calls of active or inactive are those of the source. No stated cut-off is given here; in the data, active means inhibition above about 31%; inactive means the rest.
Possible outcomes: y (active), n (inactive)

[
  {
    "record-smiles": "CCOC(=O)N1CCN(c2nc(-c3cccc(OC)c3)cc(C(F)(F)F)n2)CC1",
    "study-system": "N-formyl peptide receptor 2 (Homo sapiens) (UniProt P25090)",
    "class-label": "n"
  },
  {
    "record-smiles": "Cc1ccc(C(=O)N2CCN(c3nc(-c4ccccc4)c4cc(Br)ccc4n3)CC2)cc1",
    "study-system": "N-formyl peptide receptor 2 (Homo sapiens) (UniProt P25090)",
    "class-label": "n"
  },
  {
    "record-smiles": "COc1ccc(-c2cn3cccnc3n2)cc1NC(=O)c1ccco1",
    "study-system": "N-formyl peptide receptor 2 (Homo sapiens) (UniProt P25090)",
    "class-label": "n"
  },
  {
    "record-smiles": "CCOC(=O)N1CCN(c2nc(-c3ccccc3Cl)c3cc(Br)ccc3n2)CC1",
    "study-system": "N-formyl peptide receptor 2 (Homo sapiens) (UniProt P25090)",
    "class-label": "n"
  },
  {
    "record-smiles": "COc1ccc(-c2cn3cccnc3n2)cc1NC(=O)c1cccc(Br)c1",
    "study-system": "N-formyl peptide receptor 2 (Homo sapiens) (UniProt P25090)",
    "class-label": "n"
  },
  {
    "record-smiles": "COc1ccc(-c2cn3cccnc3n2)cc1NC(=O)c1ccc(Cl)cc1",
    "study-system": "N-formyl peptide receptor 2 (Homo sapiens) (UniProt P25090)",
    "class-label": "n"
  },
  {
    "record-smiles": "COc1ccc(-c2cn3cccnc3n2)cc1NC(=O)Cc1ccccc1",
    "study-system": "N-formyl peptide receptor 2 (Homo sapiens) (UniProt P25090)",
    "class-label": "y"
  },
  {
    "record-smiles": "O=C(O)CCC(=O)N1CCN(c2nc(-c3ccccc3Cl)c3cc(Br)ccc3n2)CC1",
    "study-system": "N-formyl peptide receptor 2 (Homo sapiens) (UniProt P25090)",
    "class-label": "n"
  },
  {
    "record-smiles": "Cc1ccc2nc(N3CCN(c4ccccc4Cl)CC3)nc(-c3ccccc3)c2c1",
    "study-system": "N-formyl peptide receptor 2 (Homo sapiens) (UniProt P25090)",
    "class-label": "y"
  },
  {
    "record-smiles": "COc1ccc(-c2cn3cccnc3n2)cc1NC(=O)c1cccc(Cl)c1",
    "study-system": "N-formyl peptide receptor 2 (Homo sapiens) (UniProt P25090)",
    "class-label": "n"
  }
]

---

# study-system: N-formyl peptide receptor 2 (Homo sapiens) (UniProt P25090)
# assay-name: FPRL1 fluorescent ligand binding inhibitors, cell-based, flow cytometry, single concentration (AID 765)
# test-parameters: FPRL1-expressing cells, stronger effect = higher value; at 5.1 µM unless noted
Activity calls are given as the source filed them. Rule as the data show it: active = inhibition above about 31%; inactive = the rest.

[
  {
    "molecule": "COc1ccc(-c2cn3cccnc3n2)cc1NC(=O)c1cccc(C(F)(F)F)c1",
    "study-system": "N-formyl peptide receptor 2 (Homo sapiens) (UniProt P25090)",
    "inhibition": "3.7% [at 5.4 µM] (inactive)"
  },
  {
    "molecule": "Cc1ccccc1N1CCN(c2nc(-c3ccccc3)c3cc(Br)ccc3n2)CC1",
    "study-system": "N-formyl peptide receptor 2 (Homo sapiens) (UniProt P25090)",
    "inhibition": "0.2% [at 4.8 µM] (inactive)"
  },
  {
    "molecule": "O=C(O)C1CC=CCC1C(=O)N1CCN(c2nc(-c3ccccc3Cl)c3cc(Br)ccc3n2)CC1 (stereo not given)",
    "study-system": "N-formyl peptide receptor 2 (Homo sapiens) (UniProt P25090)",
    "inhibition": "-6.7% [at 4 µM] (inactive)"
  },
  {
    "molecule": "Fc1ccc(-c2cc(C(F)(F)F)nc(N3CCN(C(c4ccccc4)c4ccccc4)CC3)n2)cc1",
    "study-system": "N-formyl peptide receptor 2 (Homo sapiens) (UniProt P25090)",
    "inhibition": "-9.4% [at 4.5 µM] (inactive)"
  },
  {
    "molecule": "COc1ccc(-c2cn3cccnc3n2)cc1NC(=O)c1ccccc1Br",
    "study-system": "N-formyl peptide receptor 2 (Homo sapiens) (UniProt P25090)",
    "inhibition": "3.2% [at 5.3 µM] (inactive)"
  }
]

---

# study-system: N-formyl peptide receptor 2 (Homo sapiens) (UniProt P25090)
# assay-name: FPRL1 fluorescent ligand binding inhibitors, cell-based, flow cytometry, single concentration (AID 765)
# test-parameters: FPRL1-expressing cells; at 5.1 µM unless noted
Calls of active or inactive are those of the source. No stated cut-off is given here; in the data, active means inhibition above about 31%; inactive means the rest.
Possible outcomes: active, inactive

[
  {
    "compound": "COc1ccc(-c2cn3cccnc3n2)cc1NC(=O)c1ccc(F)c(F)c1",
    "study-system": "N-formyl peptide receptor 2 (Homo sapiens) (UniProt P25090)",
    "class-label": "inactive"
  },
  {
    "compound": "CCOC(=O)N1CCN(c2nc(-c3ccc(OC)c(OC)c3)cc(C(F)(F)F)n2)CC1",
    "study-system": "N-formyl peptide receptor 2 (Homo sapiens) (UniProt P25090)",
    "class-label": "active"
  },
  {
    "compound": "Clc1cccc(-c2nc(N3CCN(C4CCCCC4)CC3)nc3c2COc2ccccc2-3)c1",
    "study-system": "N-formyl peptide receptor 2 (Homo sapiens) (UniProt P25090)",
    "class-label": "inactive"
  },
  {
    "compound": "Cc1ccc2nc(N3CCN(C(=O)CCCC(=O)O)CC3)nc(-c3ccccc3)c2c1",
    "study-system": "N-formyl peptide receptor 2 (Homo sapiens) (UniProt P25090)",
    "class-label": "inactive"
  },
  {
    "compound": "O=C(c1cccc(F)c1)N1CCN(c2nc(-c3cccs3)cc(C(F)(F)F)n2)CC1",
    "study-system": "N-formyl peptide receptor 2 (Homo sapiens) (UniProt P25090)",
    "class-label": "inactive"
  },
  {
    "compound": "COc1ccc(-c2cn3cccnc3n2)cc1NC(=O)C1CC1",
    "study-system": "N-formyl peptide receptor 2 (Homo sapiens) (UniProt P25090)",
    "class-label": "active"
  },
  {
    "compound": "Cc1ccc(-c2cc(C(F)F)nc(N3CCN(c4ccccc4)CC3)n2)cc1",
    "study-system": "N-formyl peptide receptor 2 (Homo sapiens) (UniProt P25090)",
    "class-label": "inactive"
  },
  {
    "compound": "COc1ccc(-c2cn3cccnc3n2)cc1NC(=O)C1CCCC1",
    "study-system": "N-formyl peptide receptor 2 (Homo sapiens) (UniProt P25090)",
    "class-label": "active"
  },
  {
    "compound": "COc1ccc(C2CC(=O)c3cnc(N4CCN(Cc5ccc6c(c5)OCO6)CC4)nc3C2)cc1 (stereo not given)",
    "study-system": "N-formyl peptide receptor 2 (Homo sapiens) (UniProt P25090)",
    "class-label": "inactive"
  },
  {
    "compound": "COc1ccc(-c2cc(C(F)(F)F)nc(N3CCN(C)CC3)n2)cc1",
    "study-system": "N-formyl peptide receptor 2 (Homo sapiens) (UniProt P25090)",
    "class-label": "inactive"
  }
]
